tested on: sugar beet; test: Test B pre/postemergence sugar beet; format: in vivo, Beta vulgaris; conditions: Preemergence, Rate 500 g/ha; scale 0 to 10, 0 is no effect, 10 is complete control
Provide the recorded Sugarbeets plant response rating for the entries that follow.
Field format: numeric only.

Find the recorded Sugarbeets plant response rating belonging to CC(C)N(C(=O)n1oc(=O)n(CC(=O)C2CC2)c1=O)c1ccccc1 [Compound 489] and report it.
5

Now consider CC(C)N(C(=O)n1oc(=O)n(CC(=O)C2CC2)c1=O)c1ccc(F)cc1F [Compound 490] .
5

Moving on to CC(C)N(C(=O)n1oc(=O)n(CCl)c1=O)c1ccccc1 [Compound 423]
0

Moving on to CC(C)N(C(=O)n1oc(=O)n(CC(=O)N(C)C)c1=O)c1ccc(Cl)cc1 [Compound 477]
0

And what about the compound CC(C)N(C(=O)n1oc(=O)n(CCBr)c1=O)c1ccccc1 [Compound 415] ?
8

One more compound: CC(C)N(C(=O)n1oc(=O)n(CC2=NOCC2)c1=O)c1ccc(F)cc1 [Compound 466]
4

Do the same for CC(=O)NCn1c(=O)on(C(=O)N(c2ccc(F)cc2)C(C)C)c1=O [Compound 473] please
0

---

tested on: sugar beet; assay: Test B pre/postemergence sugar beet; type: in vivo, Beta vulgaris; conditions: Preemergence, Rate 250 g/ha; scale of 0 to 10 where 0 is no effect and 10 is complete control
Provide the reported Sugarbeets plant response rating of each item.
Just the number.

# get_value(readout= Sugarbeets plant response rating, system= sugar beet) for "Cc1nnsc1Cn1c(=O)on(C(=O)N(c2ccc(F)cc2)C(C)C)c1=O"
0

Also need "Cc1nnsc1Cn1c(=O)on(C(=O)N(c2ccccc2)C(C)C)c1=O" , thanks.
0

Could you do the same for "COC(Cn1c(=O)on(C(=O)N(c2ccc(F)cc2)C(C)C)c1=O)OC" , please?
7

Also "CC(C)N(C(=O)n1oc(=O)n(CCC2OCCCO2)c1=O)c1ccc(F)cc1" ?
6

Thanks! And "CC(C)N(C(=O)n1oc(=O)n(CCC#N)c1=O)c1ccc(F)cc1" ?
3

---

Provide the reported Redroot pigweed plant response rating of each item.
system: pigweed; experiment: Test B pre/postemergence pigweed; type: in vivo, Amaranthus retroflexus; settings: Preemergence, Rate 62 g/ha; scale of 0 to 10 where 0 is no effect and 10 is complete control
# respond with the number and nothing more

Tell me the measured Redroot pigweed plant response rating of COCC(OC)n1c(=O)on(C(=O)N(c2ccccc2)C(C)C)c1=O (stereo not shown) , please.
2

Same thing, different molecule: "C=C(Cc1ccccc1)Cn1c(=O)on(C(=O)N(c2ccccc2)C(C)C)c1=O"
1

Consider next the molecule "Cc1nc(C)c(Cn2c(=O)on(C(=O)N(c3ccc(F)cc3)C(C)C)c2=O)s1" in the same way.
0

// next record "C=C(Cl)Cn1c(=O)on(C(=O)N(c2ccc(F)cc2F)C(C)C)c1=O"
0

---

Could you please report measured Plant response rating, Giant foxtail for the items listed next?
Test system: giant foxtail
Experiment: Test B pre/postemergence giant foxtail
Format: in vivo, Setaria faberii
Conditions: Preemergence, Rate 62 g/ha; scale 0 to 10, 0 is no effect, 10 is complete control
Description: […] At the same time, these crop and weed species were also treated with postemergence applications of test chemicals formulated in the same manner. […] Treated plants and controls were maintained in a greenhouse for twelve to sixteen days, after which all species were compared to controls and visually evaluated. […]

Please look up its Plant response rating, Giant foxtail: Cc1cccc(Cl)c1-n1c(=O)on(C(=O)N(c2ccc(F)cc2)C(C)C)c1=O [Compound 53]
3

Likewise for Cc1cccc(C)c1-n1c(=O)on(C(=O)N(c2ccc(Cl)cc2)C(C)C)c1=O [Compound 47] ?
0

Can you handle Cc1ccccc1-n1c(=O)on(C(=O)N(c2ccc([N+](=O)[O-])cc2)C(C)C)c1=O [Compound 44] next?
0

Note, next up: CCN(C(=O)n1oc(=O)n(-c2c(C)cccc2C)c1=O)C1CCCCC1 [Compound 27]
0

Input Cc1cccc(Cl)c1-n1c(=O)on(C(=O)N(c2ccc(Cl)cc2)C(C)C)c1=O [Compound 54]
2

---

tested on: purple nutsedge; experiment: Test B pre/postemergence purple nutsedge; assay type: in vivo, Cyperus rotundus; conditions: Rate 62 g/ha, Postemergence; scale of 0 to 10 where 0 is no effect and 10 is complete control
outcome.measure: Nutsedge plant response rating
Format: numeric value only, no unit, no commentary.

# get_value(readout='Nutsedge plant response rating', item= Cc1ccccc1-n1c(=O)on(C(=O)N(c2ccc(Br)cc2)C(C)C)c1=O [Compound 175] )
0

Another compound to look at: CC(C)c1noc(C(C)C)c1-n1c(=O)on(C(=O)N(c2ccc(F)cc2)C(C)C)c1=O [Compound 135]
0

What about Cc1nnsc1Cn1c(=O)on(C(=O)N(c2ccccc2)C(C)C)c1=O [Compound 378] ?
0

How about CCCn1c(=O)on(C(=O)N(c2ccc(F)cc2F)C(C)C)c1=O [Compound 130] ?
0

Next entry: CC(=O)Cn1c(=O)on(C(=O)N(c2ccc(F)cc2)C(C)C)c1=O [Compound 217]
0

Thanks! And C#CCn1c(=O)on(C(=O)N(c2ccc(F)cc2)C(C)C)c1=O [Compound 212] ?
0

---

system: purple nutsedge; assay: Test B pre/postemergence purple nutsedge; format: in vivo, Cyperus rotundus; conditions: Preemergence, Rate 500 g/ha; scale of 0 to 10 where 0 is no effect and 10 is complete control
Provide the recorded Nutsedge plant response rating for the entries that follow.
Answer using only a numeral; do not append any unit.

State the recorded Nutsedge plant response rating for this entry: CC(C)N(C(=O)n1oc(=O)n(CCCC(F)(F)F)c1=O)c1ccc(F)cc1F [Compound 526]
0

Do the same for COC(=O)CCCn1c(=O)on(C(=O)N(c2ccc(F)cc2F)C(C)C)c1=O [Compound 513] please
0

Next up: CC(C)N(C(=O)n1oc(=O)n(CC(=O)N(C)C)c1=O)c1ccccc1 [Compound 588]
0

Further, for CC(C)N(C(=O)n1oc(=O)n(CC2CCC2)c1=O)c1ccc(F)cc1F [Compound 521] ?
0

Also CC(C)N(C(=O)n1oc(=O)n(N2C(C)CCCC2C)c1=O)c1ccc(F)cc1 (stereo not drawn) [Compound 382] , if possible.
0

How about this compound: Cc1nnsc1Cn1c(=O)on(C(=O)N(c2ccc(F)cc2)C(C)C)c1=O [Compound 380]
0

And for CC(C)N(C(=O)n1oc(=O)n(CCl)c1=O)c1ccc(F)cc1 [Compound 376] ?
0

Consider next the compound CCOC(=O)C(C)N(C(=O)n1oc(=O)n(-c2c(C)cccc2OC)c1=O)c1ccc(F)cc1 (stereo not drawn) [Compound 331] in the same way.
0

Same for CC(C)N(C(=O)n1oc(=O)n(C2CCOCC2)c1=O)c1ccc(F)cc1 [Compound 310]
10

// next record CC(C)N(C(=O)n1oc(=O)n(COCc2ccccc2)c1=O)c1ccc(F)cc1F [Compound 520]
0

Try CC1CC1n1c(=O)on(C(=O)N(c2ccc(Cl)cc2)C(C)C)c1=O (stereo not drawn) [Compound 369] next.
5

Then this compound: Cc1c(-n2c(=O)on(C(=O)N(c3ccccc3)C(C)C)c2=O)ccc2ccccc12 [Compound 344]
0

---

For each of the molecules below, state its Plant response rating, Blackgrass.
tested on: blackgrass; assay: Test E blackgrass; assay type: in vivo, Alopecurus myosuroides; details: Preemergence; Rate 500 g/ha; 0 to 100 scale where 0 is no effect and 100 is complete control
Lab note: record just the number, no unit beside it.

Sample Cc1nc(C)c(Cn2c(=O)on(C(=O)N(c3ccc(F)cc3)C(C)C)c2=O)s1 [Compound 232] — what was its Plant response rating, Blackgrass?
50

Consider next the molecule CC(C)N(C(=O)n1oc(=O)n(C(C)C)c1=O)c1ccc(F)cc1 [Compound 131] in the same way.
100

Now this one: Cc1ccccc1-n1c(=O)on(C(=O)N(c2cc(F)cc(F)c2)C(C)C)c1=O [Compound 67]
20

Entry to check: C=CCn1c(=O)on(C(=O)N(c2ccc(Cl)cc2)C(C)C)c1=O [Compound 105]
50

Cool, now C#CCn1c(=O)on(C(=O)N(c2ccc(F)cc2)C(C)C)c1=O [Compound 212]
50

---

test system: giant foxtail; experiment: Test B pre/postemergence giant foxtail; type: in vivo, Setaria faberii; details: Postemergence, Rate 250 g/ha; scale 0 to 10, 0 no effect, 10 complete control
outcome.measure: Giant foxtail plant response rating

Entry "Cc1nn(C)c(Cl)c1-n1c(=O)on(C(=O)N(c2ccccc2)C(C)C)c1=O" has what Giant foxtail plant response rating?
7

What about this compound? "Cc1ccccc1-n1c(=O)on(C(=O)N(c2ccc(C(F)(F)F)cc2)C(C)C)c1=O"
0

Also need "CCN(C(=O)n1oc(=O)n(-c2c(C)cccc2C)c1=O)C1CCCCC1" , thanks.
0

What do you get for "CC(C)N(C(=O)n1oc(=O)n(C(C)(C)C)c1=O)c1ccc(Cl)cc1" ?
9

Would you mind doing "CCn1c(=O)on(C(=O)N(c2ccccc2)C(C)C)c1=O" as well?
9

Same question, "Cc1cccc(Cl)c1-n1c(=O)on(C(=O)N(c2ccc(Cl)cc2)C(C)C)c1=O" this time
3

Can you handle "CCc1cccc(C)c1-n1c(=O)on(C(=O)N(c2ccc(F)cc2)C(C)C)c1=O" next?
3

Now the same for "Cc1cccc(C)c1-n1c(=O)on(C(=O)N(c2ccc(F)cc2)C(C)C)c1=O"
1
